target: T1, CD3 (antigen of the anti-CD3 antibody, coated in the ELISA of Examples 1-3) (Homo sapiens (Human), UniProt P07766 23-126); assay: ELISA, coated antigen, anti-human IgG-HRP; reference wild-type antibody
T1 construct: also called antibody antigen
T1 sequence (P07766 23-126 limits assumed, form in doubt): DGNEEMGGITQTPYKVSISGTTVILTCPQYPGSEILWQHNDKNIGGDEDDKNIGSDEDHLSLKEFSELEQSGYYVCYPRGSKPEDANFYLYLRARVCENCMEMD
Metric: Binding strength of mutants (EC50 mutant/EC50 wild-type)
Provide a numeric answer, followed by its unit.

Example entries begin here.
Look up and report measured Binding strength of mutants (EC50 mutant/EC50 wild-type) for this entry: anti-CD3 antibody mutant VH-F104C (antibody, V domains shown, Cys point mutant of the humanized anti-CD3 antibody; also called VH-104) VH: EVQLVESGGGLVQPGGSLRLSCAASGFTFSTYAMNWVRQAPGKGLEWVGRIRSKYNNYATYYADSVKDRFTISRDDSKNSLYLQMNSLKTEDTAVYYCARHGNCGNSYVSWFAYWGQGTLVTVSS VL: QTVVTQEPSLTVSPGGTVTLTCRSSTGAVTTSNYANWVQQKPGQAPRGLIGGTNKRAPGVPARFSGSLLGDKAALTLLGAQPEDEAEYFCALWYSNLWVFGGGTKLTVL
1 fold

Look up and report measured Binding strength of mutants (EC50 mutant/EC50 wild-type) for this entry: anti-CD3 antibody mutant VH-S53C (antibody, V domains shown, Cys point mutant of the humanized anti-CD3 antibody; also called VH-53) VH: EVQLVESGGGLVQPGGSLRLSCAASGFTFSTYAMNWVRQAPGKGLEWVGRIRCKYNNYATYYADSVKDRFTISRDDSKNSLYLQMNSLKTEDTAVYYCARHGNFGNSYVSWFAYWGQGTLVTVSS VL: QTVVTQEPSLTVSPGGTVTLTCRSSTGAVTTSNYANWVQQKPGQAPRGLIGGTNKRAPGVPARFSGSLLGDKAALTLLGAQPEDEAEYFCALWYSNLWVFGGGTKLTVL
1.2 fold

***
Look up and report measured Binding strength of mutants (EC50 mutant/EC50 wild-type) for this entry: anti-CD3 antibody mutant VL-K55C (antibody, V domains shown, Cys point mutant of the humanized anti-CD3 antibody; also called VL-55) VH: EVQLVESGGGLVQPGGSLRLSCAASGFTFSTYAMNWVRQAPGKGLEWVGRIRSKYNNYATYYADSVKDRFTISRDDSKNSLYLQMNSLKTEDTAVYYCARHGNFGNSYVSWFAYWGQGTLVTVSS VL: QTVVTQEPSLTVSPGGTVTLTCRSSTGAVTTSNYANWVQQKPGQAPRGLIGGTNCRAPGVPARFSGSLLGDKAALTLLGAQPEDEAEYFCALWYSNLWVFGGGTKLTVL
0.9 fold
